target: Sigma non-opioid intracellular receptor 1 (Homo sapiens, UniProt Q99720); assay: Displacement of [3H]prazosin from human sigma1 receptor
Sequence (Q99720 whole entry): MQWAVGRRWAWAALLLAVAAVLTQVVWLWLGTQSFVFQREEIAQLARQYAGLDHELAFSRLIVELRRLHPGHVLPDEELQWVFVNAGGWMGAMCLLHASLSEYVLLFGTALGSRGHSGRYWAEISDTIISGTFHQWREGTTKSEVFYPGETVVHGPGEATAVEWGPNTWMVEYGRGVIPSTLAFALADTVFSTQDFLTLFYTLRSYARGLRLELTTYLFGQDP
Measured Quantity: pKi
The value called pKi is obtained by taking minus log10 of the concentration in mol/L.

Input Oc1ccc(N2CCNCC2)c2c1OCCO2 , output reported pKi. 5.38

----------
molecular target: D(2) dopamine receptor (Homo sapiens, UniProt P14416); assay: biochemical; type: cell-based
Sequence (P14416 whole entry): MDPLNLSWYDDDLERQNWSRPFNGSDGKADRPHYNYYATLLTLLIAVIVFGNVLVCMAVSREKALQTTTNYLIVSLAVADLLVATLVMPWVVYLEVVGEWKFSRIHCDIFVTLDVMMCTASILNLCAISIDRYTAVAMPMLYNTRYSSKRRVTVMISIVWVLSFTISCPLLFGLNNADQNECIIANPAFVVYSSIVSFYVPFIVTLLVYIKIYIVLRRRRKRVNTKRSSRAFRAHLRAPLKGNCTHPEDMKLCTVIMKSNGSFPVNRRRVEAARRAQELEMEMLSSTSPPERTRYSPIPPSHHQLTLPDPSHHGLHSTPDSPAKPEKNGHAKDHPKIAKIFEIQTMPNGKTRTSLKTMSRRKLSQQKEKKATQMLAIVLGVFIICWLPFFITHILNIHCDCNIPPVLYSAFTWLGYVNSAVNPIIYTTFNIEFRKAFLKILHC
Description: Displacement of [3H]spiperone from human D2SR expressed in CHO cell membranes
Measured Quantity: Ki
Report the figure along with its unit, number first.

Worked cases, answers included:
>>> print(df.to_string())
                                   compound  experimental_result
0  O/N=C/c1cnn2ccc(OCCCCN3CCN(c4ccc(O)c5c4OCCO5)CC3)cc12 (stereo in doubt; 9e)             0.016 µM
1            CCCN1CCN(c2ccc(O)c3c2OCCO3)CC1               5.7 µM

Input O/N=C/c1cnn2ccc(OCCCCN3CCN(c4ccc(O)c5c4OCCO5)CC3)cc12 (stereo in doubt; 9f) , output reported Ki. 0.0011 µM

Input O=Cc1cnn2ccc(OCCCCN3CCN(c4ccc(O)c5c4OCCO5)CC3)cc12 , output reported Ki. 0.0029 µM

Input O=Cc1cnn2ccc(OCCCCN3CCN(c4ccc(O)c5[nH]c(=O)ccc45)CC3)cc12 , output reported Ki. 0.00058 µM

Input CCCN1CCN(c2ccc(O)c3[nH]c(=O)ccc23)CC1 , output reported Ki. 0.48 µM

Input CN1CCCN(c2ccc(O)c3c2OCC(=O)N3)CC1 , output reported Ki. 3.4 µM
